Recorded IC50 by entry
TARGET OR SYSTEM: human adenosine A2b receptor (Homo sapiens, UniProt P29275)
Sequence (P29275 whole entry): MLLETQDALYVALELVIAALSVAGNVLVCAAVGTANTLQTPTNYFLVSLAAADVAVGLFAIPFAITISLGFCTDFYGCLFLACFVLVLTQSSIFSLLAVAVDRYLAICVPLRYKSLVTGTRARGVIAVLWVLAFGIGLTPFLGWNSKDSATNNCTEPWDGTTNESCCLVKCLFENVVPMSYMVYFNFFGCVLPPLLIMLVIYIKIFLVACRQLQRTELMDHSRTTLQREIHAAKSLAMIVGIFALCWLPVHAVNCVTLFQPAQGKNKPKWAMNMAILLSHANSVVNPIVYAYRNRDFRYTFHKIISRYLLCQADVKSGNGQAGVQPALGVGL
MEASUREMENT PROTOCOL: Cellular in vitro reporter gene test for A2b receptor activity (antagonism of NECA)
EXPERIMENTAL CONTEXT: recombinant CHO-K1 cells, CRE-luciferase reporter, co-incubation with EC50 concentration of NECA, 3 hours
Kindly provide the numeric value in nM only, without the unit symbol.

CCCn1c(=O)n([C@H]2C[C@@H]2C)c(=O)c2c(C)c(Cn3nc[nH]c3=O)sc21 [Example 317] | 19

For this molecule ( Cc1c(CN2CCNC2=O)sc2c1c(=O)n(C1CC1)c(=O)n2C [Example 1] ), measured IC50 is 20

The value of IC50 measured for the molecule COCCn1c(=O)n(C2CC3(CCC3)C2)c(=O)c2c(C)c(Cn3nc[nH]c3=O)sc21 [Example 183] turned out to be 70

# IC50 of Cc1c(CN2CCNC2=NC#N)sc2c1c(=O)n(C1CC1C)c(=O)n2CCOC(F)(F)F (racemic) [Example 264] = 16
